- tested_target: Fes (UniProt P07332)
- Sequence (P07332 whole entry, looked up): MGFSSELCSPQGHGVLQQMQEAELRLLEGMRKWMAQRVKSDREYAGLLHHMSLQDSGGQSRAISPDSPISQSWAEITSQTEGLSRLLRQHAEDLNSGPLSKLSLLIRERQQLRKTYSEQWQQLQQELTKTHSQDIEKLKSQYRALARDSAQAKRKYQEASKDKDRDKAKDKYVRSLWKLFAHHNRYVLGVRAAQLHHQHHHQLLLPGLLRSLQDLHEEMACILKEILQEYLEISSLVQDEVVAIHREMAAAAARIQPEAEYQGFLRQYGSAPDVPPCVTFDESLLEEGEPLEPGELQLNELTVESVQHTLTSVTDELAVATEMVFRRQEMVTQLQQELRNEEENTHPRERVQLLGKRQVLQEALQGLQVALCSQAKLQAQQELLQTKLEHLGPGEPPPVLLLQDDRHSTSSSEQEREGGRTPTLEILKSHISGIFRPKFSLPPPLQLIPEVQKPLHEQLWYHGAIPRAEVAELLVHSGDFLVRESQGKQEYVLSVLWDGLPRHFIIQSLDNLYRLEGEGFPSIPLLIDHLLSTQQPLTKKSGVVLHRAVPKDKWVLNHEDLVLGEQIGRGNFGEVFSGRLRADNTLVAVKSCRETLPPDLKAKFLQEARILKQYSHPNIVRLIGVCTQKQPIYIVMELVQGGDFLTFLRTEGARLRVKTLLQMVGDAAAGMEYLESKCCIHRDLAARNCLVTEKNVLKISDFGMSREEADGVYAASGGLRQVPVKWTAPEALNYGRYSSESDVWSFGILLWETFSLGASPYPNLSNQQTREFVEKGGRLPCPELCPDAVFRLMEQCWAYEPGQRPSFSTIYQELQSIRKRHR
- procedure_text: phosphorylation enrichment, bacterial display (enrichment ratio); higher = better substrate or ligand; peptides without Tyr show the background;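 also: 11-residue human phosphosite peptides and single-mutation variants displayed on the E. coli surface, counted by deep sequencing, each peptide's frequency after selection divided by its frequency in the unselected input library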;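 also: frequency after pTyr selection over input frequency; kinase dosed for 20-30% of maximal phosphorylation in three min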
Can you tell me phosphorylation enrichment for the items I'm about to list?
One number for each entry.

These recorded examples may help you get a feel for the data.
{"residue_string": "QTLTDYDTRFF [CSNK2A3_Y131_I133T_YF]", "recorded_value": 1.09}
{"residue_string": "LRSELYFLIAR [PHIP_Y16]", "recorded_value": 1.71}
{"residue_string": "YGLPRYRWLTH [TSPAN12_Y143]", "recorded_value": 0.765}
{"residue_string": "FPQARYHWLVL [APTX_Y214_K211Q_YF]", "recorded_value": 1.22}
{"residue_string": "RGFRVCFTPDS [PTPRF_Y450_Y450C_YF]", "recorded_value": 1.73}
{"residue_string": "SLFNGYVFSGM [NEIL3_Y71_V76M_YF]", "recorded_value": 1.07}

Turning now to a further record.
ICTVDYLLRLQ [RYR1_Y3921] has a reported phosphorylation enrichment of 1.41
